Please go through the items and note down their viability, % of control.
experiment: Viability qHTS for spleen associated tyrosine kinase inhibitor (SYKi) drug resistant MV4-11 cells (AID 1963824); details: SYKi-resistant MV4-11 viability, CellTiter-Glo, 72 h; series mostly up to 45 µM; further: nearly all actives have a fitted effect of over 35% in size
Inconclusive results are not listed. Activity calls are given as the source filed them. The call rests on the fitted dose curve; in most records, active means well fitted cell-killing curve with a large enough effect; inconclusive means small, poorly fitted or top-dose-only effect, or effect the other way; inactive means no such curve, though single readings can be large or run the other way.

Sample answers from the record:
# MOLECULE, MEAS_VALUE
data = [
    ("COC1CC(O[C@H]2CC[C@@]3(C)C(=CC[C@]4(O)C3[C@H](O)[C@@H](O)[C@]3(C)[C@@H]([C@H](C)O)CC[C@@]34O)C2)OC(C)C1OC1CC(OC)C(OC2CC(OC)C(OC3OC(C)C(OC4OC(CO)C(O)C(O)C4O)C(OC)C3O)C(C)O2)C(C)O1 (stereo partly specified)", "76.2% [at 9.25 µM] (inactive)"),
    ("CC(C)=CCC[C@](C)(O[C@@H]1O[C@H](CO[C@@H]2O[C@@H](CO)[C@H](O)[C@H]2O[C@@H]2OC[C@@H](O)[C@H](O)[C@H]2O)[C@@H](O)[C@H](O)[C@H]1O)[C@H]1CC[C@]2(C)[C@@H]1[C@H](O)CC1[C@@]3(C)CC[C@H](O[C@@H]4O[C@H](CO)[C@@H](O)[C@H](O)[C@H]4O[C@@H]4O[C@H](CO)[C@@H](O)[C@H](O)[C@H]4O)C(C)(C)C3CC[C@]12C (stereo partly specified)", "92.9% [at 9.25 µM] (inactive)"),
    ("CC1OC(O[C@@H]2[C@H](O)[C@@H](OC3OC(CO)C(O)C(O)C3O)[C@H](OC(=O)[C@]34CCC(C)(C)C[C@H]3C3=CCC5[C@@]6(C)CC[C@H](O[C@@H]7O[C@H](C(=O)O)[C@@H](O)[C@H](O[C@@H]8OC[C@@H](O)[C@H](O)[C@H]8O)[C@H]7O[C@@H]7O[C@H](CO)[C@H](O)[C@H](O)[C@H]7O)[C@@](C)(C=O)C6CC[C@@]5(C)[C@]3(C)C[C@H]4O)O[C@@H]2C)C(O)C(O)C1OC1OCC(O)C(O)C1O (stereo partly specified)", "89.9% [at 4.97 µM] (inactive)"),
]

// each listed molecule needs a value for viability, % of control
1. C=C1CC[C@]2(C(=O)O[C@@H]3O[C@H](CO)[C@@H](O)[C@H](O)[C@H]3O)CC[C@]3(C)C(=CCC4[C@@]5(C)C[C@H](O)[C@@H](O[C@@H]6O[C@H](C(=O)O)[C@@H](O)[C@H](O)[C@H]6O)[C@](C)(C=O)C5CC[C@]43C)C2C1 (stereo partly specified)
2. CC1(C)CC[C@]2(C(=O)O[C@@H]3O[C@H](CO[C@@H]4O[C@H](CO)[C@@H](O)[C@H](O)[C@H]4O[C@@H]4O[C@H](CO)[C@H](O)[C@H](O)[C@H]4O)[C@@H](O)[C@H](O[C@@H]4O[C@H](CO)[C@@H](O)[C@H](O)[C@H]4O)[C@H]3O)CC[C@]3(C)C(=CCC4[C@@]5(C)CC[C@H](O[C@@H]6OC[C@@H](O)[C@H](O)[C@H]6O)[C@@](C)(C(=O)O)C5CC[C@]43C)[C@@H]2C1 (stereo partly specified)
3. C/C=C(/C)C(=O)OC1CC(C)(C)CC2C3=CCC4C5(C)CCC(OC6OC(C)C(OC7OC(C(=O)O)C(O)C(OC8OC(CO)C(O)C(O)C8OC8OC(CO)C(O)C(O)C8O)C7O)C(O)C6O)C(C)(C)C5CCC4(C)C3(C)C(OC(=O)/C=C/C=C/C=C/CCC)C(OC(C)=O)C12CO (stereo unspecified)

87.9% [at 9.25 µM] (inactive)
74.7% [at 9.25 µM] (inactive)
73.3% [at 9.25 µM] (inactive)
